Every entry's value here was drawn from patent US20060241073A1.

Test system: phytanic acid (omega-1)-hydroxylase (cytochrome P450)
Assay: in vitro
Details: human, pH 7.7
For each entry below, report its IC50 value.

Record request: IC50 value, item c1ccc(-c2ccc(C(c3ccccc3)n3ccnc3)cc2)cc1 (stereo not drawn) < 2000 nM

Quick check: IC50 of Clc1ccc(COC(Cn2ccnc2)c2ccc(Cl)cc2Cl)c(Cl)c1 (stereo not drawn) ? < 2000 nM

Given the compound Clc1ccccc1C(c1ccccc1)(c1ccccc1)n1ccnc1 , what is its reported IC50? 3000 nM

---

Tested on: phytanic acid omega-hydroxylase (cytochrome P450) of rat liver microsomes
Assay: Phytanic acid omega-hydroxylation in rat liver microsomes (formation of omega-hydroxyphytanic acid, GC/MS)
Type: biochemical
Settings: different concentrations of imidazole derivatives (FIG. 4A)
readout_name: effect on the formation of omega-hydroxyphytanic acid

>  <molecule>
Clc1ccc(COC(Cn2ccnc2)c2ccc(Cl)cc2Cl)c(Cl)c1 (stereo not shown) [Miconazole]

>  <measured_value>
inhibited

$$$$
>  <molecule>
Clc1ccccc1C(c1ccccc1)(c1ccccc1)n1ccnc1 [Clotrimazole]

>  <measured_value>
inhibited

$$$$
>  <molecule>
CC(=O)N1CCN(c2ccc(OCC3COC(Cn4ccnc4)(c4ccc(Cl)cc4Cl)O3)cc2)CC1 (stereo not shown) [Ketoconazole]

>  <measured_value>
inhibited

$$$$
